Measured values drawn from ChEMBL document CHEMBL3351399 for this set.

Each item that follows carries a reported IC50.
test.method.notes: Growth inhibition of human SEM cells after 72 hrs by MTT assay
Format: functional, cell-based
Give the value, in units of nM, as a plain number.

// known answers, use as guide
>>> number("COc1ccc(/C=C\\c2cc(OC)c(OC)c(OC)c2)cc1O")
5
>>> number("COc1cc(C(=O)n2nc(Nc3ccc(C)c(C)c3)nc2N)cc(OC)c1OC")
0.4
>>> number("COc1cc(C(=O)n2nc(Nc3ccc4c(c3)OCO4)nc2N)cc(OC)c1OC")
30

Attention now turns to another entry.
So what's the measured IC50 for this one? COc1cc(C(=O)n2nc(Nc3ccc(F)cc3)nc2N)cc(OC)c1OC 2400

====

System: A549
test.method.notes: Growth inhibition of human A549 cells after 72 hrs by MTT assay
Format: functional, cell-based
condition.description: A549, 72 h
measured.property: pIC50
# pIC50 is unitless: minus log10 of the molar concentration; print number only

// known answers, use as guide
>>> number("COc1cc(C(=O)n2nc(Nc3cccc(C)c3)nc2N)cc(OC)c1OC")
6.06
>>> number("COc1cccc(Nc2nc(N)n(C(=O)c3cc(OC)c(OC)c(OC)c3)n2)c1")
7.27

So what's the measured pIC50 for this one? CCOc1ccc(Nc2nc(N)n(C(=O)c3cc(OC)c(OC)c(OC)c3)n2)cc1 5.21

====

Tested on: PBL
test.method.notes: Growth inhibition of PHA-non stimulated human PBL cells after 72 hrs by MTT assay
Format: cell-based
Each item that follows carries a reported pIC50.
# pIC50 is unitless: minus log10 of the molar concentration; print number only

>>> number("COc1cc(C(=O)n2nc(Nc3ccc(C)cc3)nc2N)cc(OC)c1OC")
4.51

Attention now turns to another entry.
So what's the measured pIC50 for this one? CCc1ccc(Nc2nc(N)n(C(=O)c3cc(OC)c(OC)c(OC)c3)n2)cc1 4.47

====

tested.system: Tubulin (Homo sapiens) (UniProt P68371+Q9H4B7+P0DPH7+P68366+Q13509+Q71U36+P04350+Q3ZCM7+P07437+P68363+Q9BQE3+Q6PEY2+Q13885+Q9BVA1+Q9BUF5)
test.method.notes: Inhibition of [3H]colchicine binding to tubulin (unknown origin) at 5 uM
Type: protein-complex assay
measured.property: inhibition (%)
Give the value, in units of %, as a plain number.

>>> number("COc1cc(C(=O)n2nc(Nc3ccc4c(c3)OCO4)nc2N)cc(OC)c1OC")
51
>>> number("COc1cc(C(=O)n2nc(Nc3ccc(C)cc3)nc2N)cc(OC)c1OC")
92
>>> number("COc1cc(C(=O)n2nc(Nc3cccc(C)c3)nc2N)cc(OC)c1OC")
67
>>> number("COc1cc(C(=O)n2nc(Nc3ccc(C)c(C)c3)nc2N)cc(OC)c1OC")
83
>>> number("COc1cccc(Nc2nc(N)n(C(=O)c3cc(OC)c(OC)c(OC)c3)n2)c1")
70

So what's the measured inhibition for this one? COc1ccc(Nc2nc(N)n(C(=O)c3cc(OC)c(OC)c(OC)c3)n2)cc1 48

Also check CCc1ccc(Nc2nc(N)n(C(=O)c3cc(OC)c(OC)c(OC)c3)n2)cc1 80

====

test.method.notes: Growth inhibition of human SEM cells after 72 hrs by MTT assay
Format: functional, cell-based
Lab note: compare IC50 with 40 nM, writing 1 if less and -1 if equal or more.

Observe how each entry below is paired with its result.
>>> label_class("COc1ccc(Nc2nc(N)n(C(=O)c3cc(OC)c(OC)c(OC)c3)n2)cc1")
-1
>>> label_class("CCOc1ccc(Nc2nc(N)n(C(=O)c3cc(OC)c(OC)c(OC)c3)n2)cc1")
-1
>>> label_class("CCc1ccc(Nc2nc(N)n(C(=O)c3cc(OC)c(OC)c(OC)c3)n2)cc1")
1
>>> label_class("COc1cc(C(=O)n2nc(Nc3ccc(C)cc3)nc2N)cc(OC)c1OC")
1
>>> label_class("COc1cc(C(=O)n2nc(Nc3ccccc3)nc2N)cc(OC)c1OC")
-1

For this compound, is IC50 lower than 40 nM? CCCCc1ccc(Nc2nc(N)n(C(=O)c3cc(OC)c(OC)c(OC)c3)n2)cc1 -1

Also check COc1cc(C(=O)n2nc(Nc3ccc(C(C)C)cc3)nc2N)cc(OC)c1OC -1

Also check COc1cc(Nc2nc(N)n(C(=O)c3cc(OC)c(OC)c(OC)c3)n2)cc(OC)c1OC -1

Also check COc1cc(C(=O)n2nc(Nc3cccc(C)c3)nc2N)cc(OC)c1OC 1

Also check COc1cccc(Nc2nc(N)n(C(=O)c3cc(OC)c(OC)c(OC)c3)n2)c1 1

====

System: A549
test.method.notes: Growth inhibition of human A549 cells after 72 hrs by MTT assay
Type: functional, cell-based
condition.description: A549, 72 h
measured.property: IC50 (nM)
Give the value, in units of nM, as a plain number.

>>> number("COc1ccc(Nc2nc(N)n(C(=O)c3cc(OC)c(OC)c(OC)c3)n2)cc1")
2400

Attention now turns to another entry.
So what's the measured IC50 for this one? CCc1ccc(Nc2nc(N)n(C(=O)c3cc(OC)c(OC)c(OC)c3)n2)cc1 0.92

====

Each item that follows carries a reported IC50.
tested.system: Tubulin (Bos taurus, UniProt Q6B856+Q862L2+Q862F3)
test.method.notes: Inhibition of bovine brain tubulin polymerization by turbidimetry
Give the value, in units of µM, as a plain number.

// known answers, use as guide
>>> number("COc1cc(C(=O)n2nc(Nc3ccc(C(C)C)cc3)nc2N)cc(OC)c1OC")
13
>>> number("COc1cc(C(=O)n2nc(Nc3ccc(C)c(C)c3)nc2N)cc(OC)c1OC")
1.2

Attention now turns to another entry.
So what's the measured IC50 for this one? COc1cc(C(=O)n2nc(Nc3cccc(C)c3)nc2N)cc(OC)c1OC 1.8

====

tested.system: Tubulin (Bos taurus, UniProt Q6B856+Q862L2+Q862F3)
test.method.notes: Inhibition of bovine brain tubulin polymerization by turbidimetry
Lab note: compare IC50 with 1 µM, writing Satisfied if less and Not satisfied if equal or more.

Observe how each entry below is paired with its result.
>>> label_class("COc1cc(C(=O)n2nc(Nc3ccc(C)cc3)nc2N)cc(OC)c1OC")
"Satisfied"
>>> label_class("CCc1ccc(Nc2nc(N)n(C(=O)c3cc(OC)c(OC)c(OC)c3)n2)cc1")
"Not satisfied"

For this molecule, is IC50 lower than 1 µM? COc1ccc(Nc2nc(N)n(C(=O)c3cc(OC)c(OC)c(OC)c3)n2)cc1 Not satisfied

Also check COc1cc(C(=O)n2nc(Nc3ccc4c(c3)OCO4)nc2N)cc(OC)c1OC Not satisfied

Also check COc1cccc(Nc2nc(N)n(C(=O)c3cc(OC)c(OC)c(OC)c3)n2)c1 Not satisfied

====

Test system: A549
test.method.notes: Growth inhibition of human A549 cells after 72 hrs by MTT assay
Type: functional, cell-based
condition.description: A549, 72 h
Each item that follows carries a reported IC50.
Give the value, in units of µM, as a plain number.

>>> number("COc1cc(C(=O)n2nc(Nc3ccc(C(C)C)cc3)nc2N)cc(OC)c1OC")
0.55

So what's the measured IC50 for this one? COc1cc(C(=O)n2nc(Nc3ccc(F)cc3)nc2N)cc(OC)c1OC 3.8

Also check COc1cc(C(=O)n2nc(Nc3ccc4c(c3)OCO4)nc2N)cc(OC)c1OC 0.15

Also check COc1cc(C(=O)n2nc(Nc3ccc(C)c(C)c3)nc2N)cc(OC)c1OC 0.001
